# credit: paper PMC5540273

Hi there, I'd appreciate the recorded %Inh for every entry that follows.
Test system: LCK
setup.conditions: concentration: 1 μM, replicates: in singlicate; n = 1;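 also: KINOMEscan kinase panel screen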
Answers are plain numbers, in %.

# annotated cases, reported %Inh shown
Q) Please tell me the measured %Inh for Cc1cccc(-c2nc(C)cc(Nc3ccncc3)n2)n1 ; system: LCK.
A) 34

Q) Please tell me the measured %Inh for COc1cc(Nc2nccc(N3CCC(NC(=O)Nc4cc(C)ccc4C)C3)n2)cc(OC)c1OC (stereo not shown) ; system: LCK.
A) 21

Q) Please tell me the measured %Inh for Cc1ccccc1-n1cnc2c(N)ncnc21 ; system: LCK.
A) 100

Q) Please tell me the measured %Inh for Cc1nnc(-c2ccc3occ(-c4ccc(S(C)=O)cc4)c3c2)[nH]1 (stereo not shown) ; system: LCK.
A) 46

Answer for every listed entry: what is its %Inh? The entries follow.
1. Fc1cc(Cl)ccc1Nc1ccnc2cc(-c3ccc(CN4CCCCC4)o3)ccc12
2. Cc1cc(NCC(c2ccccc2)c2ccccc2)nc(NCc2ccc(C(F)(F)F)cc2)n1
3. Cc1c(Cn2ccn3c(=O)cc(N4CCOCC4)nc23)cccc1C(F)(F)F
4. Cc1cccc(-c2nc(-c3ccc(S(C)(=O)=O)cc3)sc2-c2ccnc(NCCc3ccccc3)c2)c1
5. CC(C)(C)c1ccc(C(=O)Nc2cn3cc(-c4cccnc4)ccc3n2)cc1
6. O=C(Nc1n[nH]c2cc(-c3cccc(F)c3F)ccc12)C1CC1
7. Cl.Oc1ccc(-c2nc(-c3ccccc3)[nH]c2-c2ccncc2)cc1
8. O=c1cc(N2CCOCC2)nc2n(Cc3cccc(Cl)c3Cl)ccn12

A)
1. 35
2. 0
3. 7
4. 0
5. 8
6. 0
7. 20
8. 9

Answer for every listed entry: what is its %Inh? The entries follow.
1. Cl.c1ccc(-c2n[nH]cc2-c2ccnc(-c3ccc(CN4CCOCC4)cc3)c2)nc1
2. CCn1c(-c2cccnc2O)nc2cnccc21
3. CC(C)(C)c1ccc(C(=O)Nc2cn3cc(Cl)ccc3n2)cc1
4. COc1ccccc1-c1ccc2c(NC(=O)C3CC3)n[nH]c2n1
5. C[C@@H]1CCCCN1c1cc(-c2ccc3c(N)n[nH]c3c2)nc(N)n1
6. O=C(Nc1ccc2c(c1)OCO2)NC1CCN(c2ccnc(Nc3ccc(F)cc3)n2)C1 (stereo not shown)
7. Cl.O=C(Nc1cccc(-c2nn3ncccc3c2-c2ccnc(Nc3cccnc3)n2)c1)c1c(F)cccc1F

A)
0
0
26
10
0
12
44

* * *

Hi there, I'd appreciate the recorded %Inh for every entry that follows.
Tested on: PRKG2
setup.conditions: concentration: 1 μM, replicates: in singlicate; n = 1
Please format your answer as a value with the unit trailing.

Answer for every listed entry: what is its %Inh? The entries follow.
1. Cc1cccc(-c2nc(Nc3ccc4[nH]ncc4c3)c3ccccc3n2)n1
2. CCn1c(-c2ccccn2)nc2cnccc21
3. COc1ccc2nc(-c3cccc(C)n3)nc(Nc3ccncc3)c2c1
4. Cc1cc(NCC(c2ccccc2)c2ccccc2)nc(NCc2ccc(C(F)(F)F)cc2)n1
5. Cn1cncc1-c1ccc2ncnc(Nc3ccc(OCc4ccccc4)cc3)c2c1
6. CS(=O)(=O)c1ccc(-c2nc3n(c2-c2ccncc2)CCC3)cc1
7. Cc1ccc(NC(=O)Nc2cc(C(C)(C)C)nn2-c2ccccc2)cc1
8. CCCc1ccc(S(=O)(=O)NC2CCN(c3ccnc(Nc4ccc(F)cc4)n3)C2)cc1 (stereo not shown)

A)
2%
3%
0%
0%
0%
5%
0%
0%

Answer for every listed entry: what is its %Inh? The entries follow.
1. Cn1ccc2ncnc(Oc3cccc(C(=O)Nc4ccccc4)c3)c21
2. COc1cc2ncnc(Nc3ccc4nc(-c5ccccc5)[nH]c4c3)c2cc1OC.Cl
3. O=C(Nc1n[nH]c2nc(-c3nccs3)c(Br)cc12)C1CC1
4. CC1=C(C(=O)Nc2cc3cn[nH]c3cc2F)C(c2ccc(C(F)(F)F)cc2)CC(=O)N1 (stereo not shown)
5. COc1ccc(C2=C(Nc3cccc(C(=O)O)c3)C(=O)NC2=O)cc1
6. Cl.NC(=O)c1cccc(Nc2nccc(Nc3ccc(Oc4cccc(Cl)c4)c(Cl)c3)n2)c1
7. NC(=O)c1nnc2ccccc2c1N
8. Cc1csc(-c2nc(Nc3ccncc3)c3ccccc3n2)n1

A)
["0%", "13%", "0%", "0%", "0%", "3%", "14%", "12%"]

Answer for every listed entry: what is its %Inh? The entries follow.
1. Fc1cc(Cl)ccc1Nc1ccnc2cc(I)ccc12
2. CC(C)(C)c1ccc(C(=O)Nc2cn3cc(-c4cccnc4)ccc3n2)cc1

A)
1: 0%; 2: 26%

Q) Determine from records and report %Inh for Cc1cccc(-c2nc(-c3ccc(S(C)(=O)=O)cc3)sc2-c2ccnc(NCCc3ccccc3)c2)c1
A) 20%
